Target: T1, GIP Receptor (Homo sapiens, UniProt P48546)
T1 construct: host or cells: HEK293T
T1 sequence (P48546 22-466): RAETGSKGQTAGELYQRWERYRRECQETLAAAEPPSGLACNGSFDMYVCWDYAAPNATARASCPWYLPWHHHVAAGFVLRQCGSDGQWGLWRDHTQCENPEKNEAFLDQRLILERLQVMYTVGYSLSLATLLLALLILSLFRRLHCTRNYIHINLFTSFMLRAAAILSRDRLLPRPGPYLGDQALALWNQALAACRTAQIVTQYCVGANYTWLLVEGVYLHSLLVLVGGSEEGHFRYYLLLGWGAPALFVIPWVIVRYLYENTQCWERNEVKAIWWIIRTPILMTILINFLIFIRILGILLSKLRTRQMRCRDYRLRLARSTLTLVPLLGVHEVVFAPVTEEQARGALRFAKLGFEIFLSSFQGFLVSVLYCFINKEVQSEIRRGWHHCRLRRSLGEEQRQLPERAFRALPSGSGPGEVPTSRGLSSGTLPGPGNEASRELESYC
Assay: GIP receptor-mediated bioluminescence in HEK293T cells with chimeric promiscuous G protein (FIG. 5, Table II)
Format: cell-based
Conditions: signal induced by maximal GIP (1 μM) divided by signal induced by buffer alone
Method: However, coexpression of GIP receptor with a chimeric G protein containing sequences from Gαs and Gαq enable the GIP receptor to stimulate calcium flux. […] Signal to background ratio was calculated as the signal induced by maximal GIP (1 μM) divided by the signal induced by buffer alone. The EC50 value for calcium was determined as described above for FIG. 2 for mitochondrially targeted photoproteins transfected into HEK293T cells in the absence of a cotransfected GPCR or G protein. […]
OBSERVABLE: Signal: background with GIP
I'd appreciate a reply containing only the number, no unit.

Report Signal: background with GIP, nothing else, for this molecule: Mt-clytin K168D: Mitochondrial K168D modified Clytin, SEQ ID NO:10 (protein) MSVLTPLLLRGLTGSARRLPVPRAKIHSLPPEGKLRPNFDNPKWVNRHKFMFNFLDINGDGKITLDEIVSKASDDICAKLGATPEQTKRHQDAVEAFFKKIGMDYGKEVEFPAFVDGWKELANYDLKLWSQNKKSLIRDWGEAVFDIFDKDGSGSISLDEWKAYGRISGICSSDEDAEKTFKHCDLDNSGDLDVDEMTRQHLGFWYTLDPNADGLYGNFVP
188.2

Data provenance is patent US20110081661A1.
